B1: ZNF232 (parent)
chain: HSGEKPFICKECGKAYGWCSELIR

Variants of: B1
Assay: protein stability index of a GFP-peptide fusion (GPS, HEK-293T) (PSI 1-6); higher = more stable;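 note: lentivirally expressed fusions sorted by FACS into six bins by GFP to DsRed ratio, PSI derived from sequencing read proportions per bin multiplied by bin number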
Settings: c terminus: a fixed tail appended
Items are presented alongside their recorded protein stability index.
Give only the figure.

A selection of reference data follows.
macromolecule_sequence | protein stability index
HSGEKPFICKECGKAYGWCFELIR | 2.11
HSGEKLFICKECGKAYGWCSELIR | 2.2
HSGEKPFICKECGKATGWCSELIR | 2.49
HSFEKPFICKECGKAYGWCSELIR | 2.13
SSGEKPFICKECGKAYGWCSELIR | 2.33
HSGEKPFICKECGKAYGWCSGLIR | 2.18
LSGEKPFICKECGKAYGWCSELIR | 1.9
HSMEKPFICKECGKAYGWCSELIR | 2.49
HSGEKPFICKECGKAYGWCSWLIR | 2.11
HSGEKPFICKHCGKAYGWCSELIR | 2.24

Could you now look at the following variant, please?
Query: protein stability index lookup needed for `HSGEKPSICKECGKAYGWCSELIR` , thanks.
Reply: 2.79

Ref: the supplement of paper PMC10567573
